src = ChEMBL document CHEMBL5360570

Assay: Clearance in Sprague-Dawley rat at 2 mg/kg, iv measured upto 24 hrs by LC-MS/MS analysis
Type: ADME, organism-based
Conditions: in vivo
experimental.endpoint: clearance (mL/min/kg)
Answer format: numeric, mL/min/kg implied, no suffix.

Q: Provide only the value of recorded clearance for `CCc1cccc(CC)c1N1CCn2cc(-c3nc(Nc4ccc(N5CCN(C(C)=O)CC5)cc4OC)nc4[nH]ncc34)cc2C1=O`
Ans: 32

---

Assay: Tmax in Sprague-Dawley rat at 10 mg/kg, po measured upto 24 hrs by LC-MS/MS analysis
Format: ADME, organism-based
Settings: in vivo
experimental.endpoint: Tmax
Could you write the number and then its unit?

Q: Provide only the value of recorded Tmax for `CCc1cccc(CC)c1N1CCn2cc(-c3nc(Nc4ccc(N5CCN(C(C)=O)CC5)cc4OC)nc4[nH]ncc34)cc2C1=O`
Ans: 20 min

---

Tested on: MDA-MB-468
Test: cells
Type: functional, cell-based
Conditions: Homo sapiens, MDA-MB-468, 72 h
Description: Antiproliferative activity against human MDA-MB-468 cells assessed inhibition of cell growth incubated for 72 hrs by CCK-8 assay
experimental.endpoint: IC50
Could you write the number and then its unit?

Q: # lookup: MDA-MB-468 IC50, key = `CCc1cccc(CC)c1NC(=O)c1ccn(-c2nc(Nc3ccc(N4CCN(C(C)=O)CC4)cc3OC)nc3[nH]ncc23)c1`
Ans: 371 nM

Q: # lookup: MDA-MB-468 IC50, key = `CCc1cccc(CC)c1N1CCn2cc(-c3nc(Nc4ccc(N5CCN(C(C)=O)CC5)cc4OC)nc4[nH]ncc34)cc2C1=O`
Ans: 221 nM

Q: # lookup: MDA-MB-468 IC50, key = `COc1cc(OC2CCN(C)CC2)ccc1Nc1ncc2c(n1)n(C1CCCC1)c(=O)n2C`
Ans: 2100 nM

Q: # lookup: MDA-MB-468 IC50, key = `COc1cc(N2CCC(N(C)C)CC2)ccc1Nc1nc(OC2CCCC2)c2c(-c3ccc(OC)c(OC)c3)n[nH]c2n1`
Ans: 1270 nM

Q: # lookup: MDA-MB-468 IC50, key = `COc1cc(N2CCOCC2)ccc1Nc1nc(OC2CCCC2)c2c(-c3ccc(OC)c(OC)c3)n[nH]c2n1`
Ans: 2090 nM

---

Test: AUC (0 to t) in Sprague-Dawley rat at 10 mg/kg, po measured upto 24 hrs by LC-MS/MS analysis
Assay type: ADME, organism-based
Design: time < 24 hrs, dose 10 mg/kg, route po
Conditions: in vivo
experimental.endpoint: AUC(0-t) at 24 h
Could you write the number and then its unit?

Q: Provide only the value of recorded AUC(0-t) at 24 h for `CCc1cccc(CC)c1N1CCn2cc(-c3nc(Nc4ccc(N5CCN(C(C)=O)CC5)cc4OC)nc4[nH]ncc34)cc2C1=O`
Ans: 204 ng·h/mL

---

Biological target: Dual specificity protein kinase TTK (Homo sapiens) (UniProt P33981)
Sequence (whole entry): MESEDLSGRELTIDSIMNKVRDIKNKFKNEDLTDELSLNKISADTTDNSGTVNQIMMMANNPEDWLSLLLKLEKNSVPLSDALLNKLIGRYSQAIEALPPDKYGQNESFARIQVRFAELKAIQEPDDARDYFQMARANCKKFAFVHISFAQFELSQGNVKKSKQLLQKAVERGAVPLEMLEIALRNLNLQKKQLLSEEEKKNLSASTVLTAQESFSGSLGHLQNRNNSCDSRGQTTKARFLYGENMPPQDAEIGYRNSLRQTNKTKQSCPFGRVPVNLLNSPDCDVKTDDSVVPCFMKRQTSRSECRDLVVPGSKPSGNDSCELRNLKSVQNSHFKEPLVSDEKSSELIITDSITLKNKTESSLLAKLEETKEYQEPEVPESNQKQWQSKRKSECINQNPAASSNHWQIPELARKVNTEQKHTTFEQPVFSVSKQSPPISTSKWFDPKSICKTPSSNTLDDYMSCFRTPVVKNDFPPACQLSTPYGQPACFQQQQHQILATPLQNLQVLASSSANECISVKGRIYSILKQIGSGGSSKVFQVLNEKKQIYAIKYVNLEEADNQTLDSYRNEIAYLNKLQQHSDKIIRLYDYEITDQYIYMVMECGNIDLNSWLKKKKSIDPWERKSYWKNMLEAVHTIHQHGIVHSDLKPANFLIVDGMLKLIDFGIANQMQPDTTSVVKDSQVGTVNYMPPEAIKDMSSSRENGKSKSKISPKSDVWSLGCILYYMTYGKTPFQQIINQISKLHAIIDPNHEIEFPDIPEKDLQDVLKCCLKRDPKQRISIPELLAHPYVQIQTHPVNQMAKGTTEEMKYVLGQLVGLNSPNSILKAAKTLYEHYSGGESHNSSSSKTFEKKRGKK
Assay: Inhibition of Mps1 (unknown origin) at 1000 nM pretreated for 10 mins followed by substrate addition and measured after 60 mins in presence of ATP by ADP-glo kinase assay relative to control
Conditions: time 70.0 min
Criterion: inhibition meeting or surpassing 50%. Met: yes. Not met: no.

Q: Entry `COc1cc(N2CCN(C)CC2)ccc1Nc1nc(OC2CCCC2)c2c(-c3ccc(OC)c(OC)c3)n[nH]c2n1` : is its inhibition no less than 50%?
Ans: yes

Q: Entry `COc1cc(N2CCC(N(C)C)CC2)ccc1Nc1nc(OC2CCCCC2)c2c(-c3ccc(OC)c(OC)c3)n[nH]c2n1` : is its inhibition no less than 50%?
Ans: yes

Q: Entry `COc1ccc(-c2n[nH]c3nc(Nc4ccc(N5CCC(N(C)C)CC5)cc4OC)nc(OC4CCCC4)c23)cc1` : is its inhibition no less than 50%?
Ans: no

Q: Entry `COc1ccc(-c2n[nH]c3nc(Nc4ccccc4)nc(OC4CCCC4)c23)cc1OC` : is its inhibition no less than 50%?
Ans: no

Q: Entry `COc1cc(N2CCOCC2)ccc1Nc1nc(OC2CCCC2)c2c(-c3ccc(OC)c(OC)c3)n[nH]c2n1` : is its inhibition no less than 50%?
Ans: yes
